biological target: UniProt:P23743; test: biochemical
pIC50: −log10 of the molar value.
Tag: Y if measured pIC50 is not below 8, N if it is.

[
  {
    "compound": "CC[C@H]1C[C@H](c2nc3cc(C)ccc3o2)CCN1c1nc(=O)n(C)c2cc(OC3CCOC3)c(Cl)cc12 (single isomer, unassigned)",
    "test-target": "UniProt:P23743",
    "class-label": "Y"
  },
  {
    "compound": "Cn1c(=O)nc(N2CCCc3c(C#CC4CC4)cccc32)c2nc(C#N)ccc21",
    "test-target": "UniProt:P23743",
    "class-label": "Y"
  },
  {
    "compound": "CC[C@H]1CN([C@@H](CC)c2ccc(SC(F)(F)F)cc2)[C@H](CC)CN1c1nc2nncn2c2ccc(C#N)nc12 (stereo in doubt)",
    "test-target": "UniProt:P23743",
    "class-label": "Y"
  },
  {
    "compound": "CC[C@H]1CN([C@H](CC)c2cccc(C(F)(F)F)c2)[C@H](CC)CN1c1nc2nncn2c2ccc(C#N)nc12 (stereo in doubt)",
    "test-target": "UniProt:P23743",
    "class-label": "N"
  }
]

* * *

target: DGKa (Homo sapiens (Human), UniProt P23743); assay: biochemical;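 also: biochemical DGK kinase assay, ADP-Glo luminescence from ADP made by phosphorylating 1,2-dioleoyl-sn-glycerol, 20 min compound preincubation then 40 min reaction at 25 °C, 1% DMSO control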
Sequence (P23743 whole entry): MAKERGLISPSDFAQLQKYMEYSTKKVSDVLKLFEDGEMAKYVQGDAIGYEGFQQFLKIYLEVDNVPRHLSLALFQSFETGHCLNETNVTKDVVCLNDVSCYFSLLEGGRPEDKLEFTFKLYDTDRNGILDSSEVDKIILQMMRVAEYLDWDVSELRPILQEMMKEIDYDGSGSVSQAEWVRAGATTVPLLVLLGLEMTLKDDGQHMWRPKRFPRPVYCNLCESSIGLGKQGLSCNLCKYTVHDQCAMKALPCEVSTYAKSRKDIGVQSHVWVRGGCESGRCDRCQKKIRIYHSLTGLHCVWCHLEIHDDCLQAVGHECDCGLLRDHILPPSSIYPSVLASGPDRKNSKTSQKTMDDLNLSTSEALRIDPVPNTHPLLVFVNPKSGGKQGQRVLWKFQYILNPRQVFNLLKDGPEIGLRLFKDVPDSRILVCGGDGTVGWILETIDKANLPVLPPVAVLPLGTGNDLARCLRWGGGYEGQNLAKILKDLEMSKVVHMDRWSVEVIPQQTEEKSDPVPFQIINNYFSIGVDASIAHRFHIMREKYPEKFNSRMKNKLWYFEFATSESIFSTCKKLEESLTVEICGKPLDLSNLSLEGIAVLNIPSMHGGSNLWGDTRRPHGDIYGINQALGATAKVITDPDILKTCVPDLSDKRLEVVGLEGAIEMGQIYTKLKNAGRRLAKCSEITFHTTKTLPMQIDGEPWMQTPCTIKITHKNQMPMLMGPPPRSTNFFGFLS
pIC50: −log10 of the molar value.
Note to self: values exactly at 8 are t. So pIC50 at or above 8 is t, below is f.

[
  {
    "compound": "CC[C@@H]1CN(c2nc(=O)n(C)c3ccc(C#N)nc23)[C@@H](C)CN1[C@H](CC)c1ccc(S(F)(F)(F)(F)F)cc1 (stereo in doubt)",
    "class-label": "f"
  },
  {
    "compound": "CC[C@@H]1C[C@@H](c2nc3cc(C)ccc3o2)CCN1c1nc(=O)n(C)c2cc(OC3CCOC3)c(Cl)cc12 (stereo in doubt)",
    "class-label": "t"
  }
]

* * *

test system: PBMC; experiment: Human PBMC IL-2 assay; assay type: cell-based; details: anti-CD3/CD28 stimulation overnight, IL-2 level
// classify(record): look up EC50 in ranges Low: < 0.08 µM; Mid: ≥ 0.08 µM and < 0.6 µM; High: ≥ 0.6 µM

[
  {
    "compound": "CC[C@@H]1CN2c3c(c(=O)n(C)c4ccc(C#N)nc34)OC[C@@H]2CN1[C@H](CC)c1ccc(C)cc1 (stereo in doubt)",
    "test-target": "PBMC",
    "class-label": "Low"
  },
  {
    "compound": "CC[C@@H]1CN2c3c(c(=O)n(C)c4ccc(C#N)nc34)OC[C@@H]2CN1[C@H](CC)c1ccc(C)c(Cl)c1 (stereo in doubt)",
    "test-target": "PBMC",
    "class-label": "Mid"
  },
  {
    "compound": "CC[C@@H]1CN2c3c(c(=O)n(C)c4ccc(C#N)nc34)OC[C@@H]2CN1[C@@H](CC)c1ccc(C(F)(F)F)cn1 (stereo in doubt)",
    "test-target": "PBMC",
    "class-label": "Low"
  },
  {
    "compound": "CCC(c1ccc(F)c(F)c1)N1C[C@H]2COc3c(c4nc(C#N)ccc4n(C)c3=O)N2C[C@H]1CC (single isomer, unassigned)",
    "test-target": "PBMC",
    "class-label": "Mid"
  },
  {
    "compound": "C[C@@H]1CN2c3c(c(=O)n(C)c4ccc(C#N)nc34)OC[C@@H]2CN1[C@@H](C)c1ccc(Cl)c(Cl)c1 (stereo in doubt)",
    "test-target": "PBMC",
    "class-label": "Mid"
  },
  {
    "compound": "Cn1c(=O)nc(N2CCC[C@]3(CC2)CC(c2ccc(OC(F)(F)F)cc2)=NO3)c2nc(C#N)ccc21 (stereo in doubt)",
    "test-target": "PBMC",
    "class-label": "High"
  },
  {
    "compound": "CC[C@@H]1CN2c3c(c(=O)n(C)c4ccc(C#N)nc34)OC[C@@H]2CN1[C@H](CC)c1ccc(C#N)cc1 (stereo in doubt)",
    "test-target": "PBMC",
    "class-label": "High"
  },
  {
    "compound": "CC[C@H]1CN([C@@H](CC)c2ccc(C3CC3)nc2)[C@H](CC)CN1c1nc2nncn2c2ccc(C#N)nc12 (stereo in doubt)",
    "test-target": "PBMC",
    "class-label": "Mid"
  },
  {
    "compound": "CC[C@H]1CN([C@H](CC)c2ccc(C3CC3)nc2)[C@H](CC)CN1c1nc2nncn2c2ccc(C#N)nc12 (stereo in doubt)",
    "test-target": "PBMC",
    "class-label": "Mid"
  }
]
